system: PPARg DBDmut IVT, anti-PPARg (DBD mutation: PPARg1 K132A/R137A, NR concentration 270 nM); test: PBM binding z-score (relative to random genomic background probes); higher = stronger binding; sequences stand for … in GC…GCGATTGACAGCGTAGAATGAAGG

SEQ_STRING	SYSTEM	PBM binding z-score
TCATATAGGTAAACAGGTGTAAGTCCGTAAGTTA	PPARg DBDmut IVT, anti-PPARg (DBD mutation: PPARg1 K132A/R137A, NR concentration 270 nM)	0.913
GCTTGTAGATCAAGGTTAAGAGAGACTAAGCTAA	PPARg DBDmut IVT, anti-PPARg (DBD mutation: PPARg1 K132A/R137A, NR concentration 270 nM)	-0.183
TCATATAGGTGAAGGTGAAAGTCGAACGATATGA	PPARg DBDmut IVT, anti-PPARg (DBD mutation: PPARg1 K132A/R137A, NR concentration 270 nM)	0.938
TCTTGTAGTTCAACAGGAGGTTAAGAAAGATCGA	PPARg DBDmut IVT, anti-PPARg (DBD mutation: PPARg1 K132A/R137A, NR concentration 270 nM)	-0.0772
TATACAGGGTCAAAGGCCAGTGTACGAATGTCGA	PPARg DBDmut IVT, anti-PPARg (DBD mutation: PPARg1 K132A/R137A, NR concentration 270 nM)	0.623
AGAATGAGGTGACCAAAGATCAGGGAAACGCTTG	PPARg DBDmut IVT, anti-PPARg (DBD mutation: PPARg1 K132A/R137A, NR concentration 270 nM)	0.08
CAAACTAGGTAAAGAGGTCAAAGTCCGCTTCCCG	PPARg DBDmut IVT, anti-PPARg (DBD mutation: PPARg1 K132A/R137A, NR concentration 270 nM)	1.44
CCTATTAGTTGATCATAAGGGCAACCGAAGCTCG	PPARg DBDmut IVT, anti-PPARg (DBD mutation: PPARg1 K132A/R137A, NR concentration 270 nM)	0.605
GTTTACGGGTCAAAGGTTATAGCATGAATAGAAT	PPARg DBDmut IVT, anti-PPARg (DBD mutation: PPARg1 K132A/R137A, NR concentration 270 nM)	0.914
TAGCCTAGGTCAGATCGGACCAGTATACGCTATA	PPARg DBDmut IVT, anti-PPARg (DBD mutation: PPARg1 K132A/R137A, NR concentration 270 nM)	0.399
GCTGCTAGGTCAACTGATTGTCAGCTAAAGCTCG	PPARg DBDmut IVT, anti-PPARg (DBD mutation: PPARg1 K132A/R137A, NR concentration 270 nM)	-0.522
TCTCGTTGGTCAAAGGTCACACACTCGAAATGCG	PPARg DBDmut IVT, anti-PPARg (DBD mutation: PPARg1 K132A/R137A, NR concentration 270 nM)	2.09
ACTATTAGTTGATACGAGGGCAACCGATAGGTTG	PPARg DBDmut IVT, anti-PPARg (DBD mutation: PPARg1 K132A/R137A, NR concentration 270 nM)	1.4
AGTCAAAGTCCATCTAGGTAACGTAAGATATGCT	PPARg DBDmut IVT, anti-PPARg (DBD mutation: PPARg1 K132A/R137A, NR concentration 270 nM)	0.675
